# Assay Overview: gradient 5% acetonitrile 3 min, to 50% in 2 min, to 85% in 15 min, held 3 min, 100 µL/min
# Condition Description: column: Zorbax Extend-C18 2.1 x 50 mm; eluents: water / acetonitrile, 0.1% formic acid
Listing of recorded RP-LC retention time by entry.
Please provide the amount together with its unit, number first.

Here are 3 compounds together with their reported answers.
Compound: CCOc1ccccc1NC(=O)N1CCC2(CC1)NC(=O)c1cc(C)ccc1N2C
Reported Metric: RP-LC retention time
Endpoint Value: 872 s
//
Compound: CCCn1cnc2ccc(-c3noc(CNC(=O)c4ccccc4)n3)cc21
Reported Metric: RP-LC retention time
Endpoint Value: 655 s
//
Compound: CN(C)C(CNC(=O)c1cc(-c2cccs2)on1)c1ccccc1 (stereo not given)
Reported Metric: RP-LC retention time
Endpoint Value: 664 s

Exercise: Note down RP-LC retention time recorded for Cc1ccc(F)c(NC(=O)c2cnc3c(c2)c(=O)n(C)c(=O)n3-c2ccccc2)c1
Key: 904 s

Exercise: Note down RP-LC retention time recorded for Nc1ncnc(Nc2ccc(Cl)cc2)n1
Key: 704 s

Exercise: Note down RP-LC retention time recorded for CC(C)N1CCN(Cc2nc(-c3ccc(N4CCOCC4)nc3)no2)CC1
Key: 574 s
